- assay_summary: Solubility of Form A at 20° C. and 40° C.
- Assay type: physicochemical
- measurement_conditions: organic solvent or mixture, thermodynamic from solid; THF/H2O 8:2 v/v, 40° C.; clear solution with 10 vol of solvent mix
readout: solubility at 2 days

Data request, read-out solubility at 2 days, for CCCN(CCC)C(=O)C1=Cc2ccc(-c3ccc(C(=O)N4CCCC4)cc3)cc2N=C(N)C1 [Form A]
> 100 mg/mL

====

- assay_summary: Slurry screening, solubility determined by HPLC
- Assay type: physicochemical
- measurement_conditions: organic solvent or mixture, thermodynamic from solid; slurry stirred 5 days; solvent 2-propanol
- Experimental: For purity estimation and determination of the solubility in solution a generic in-house HPLC method was used. HPLC was performed using a Phenomenex Luna 3 μm C18 (50×4.6 mm) column and detected with a DAD detector, recording at 214 nm. The slurry experiments were performed by taking approximately 40 mg starting material and slurrying in each of the solvent mixtures as detailed Table 3 using a magnetic stir bar. […]
readout: solubility at 5 days

Data request, read-out solubility at 5 days, for CCCN(CCC)C(=O)C1=Cc2ccc(-c3ccc(C(=O)N4CCCC4)cc3)cc2N=C(N)C1 [starting material]
6860 µg/mL

====

- assay_summary: Slurry screening, solubility determined by HPLC
- Assay type: physicochemical
- measurement_conditions: thermodynamic from solid; slurry stirred 5 days; solvent water
readout: solubility at 5 days (µg/mL)
Give the value, in units of µg/mL, as a plain number.

Data request, read-out solubility at 5 days, for `CCCN(CCC)C(=O)C1=Cc2ccc(-c3ccc(C(=O)N4CCCC4)cc3)cc2N=C(N)C1`
40

====

- assay_summary: Solubility of Form A at 20° C. and 40° C.
- Type: physicochemical
- measurement_conditions: organic solvent or mixture, thermodynamic from solid; EtOH, 20° C., stirred 2 days
readout: solubility at 2 days (mg/mL)
Give the value, in units of mg/mL, as a plain number.

Data request, read-out solubility at 2 days, for CCCN(CCC)C(=O)C1=Cc2ccc(-c3ccc(C(=O)N4CCCC4)cc3)cc2N=C(N)C1 [Form A]
8.5

====

- assay_summary: Solubility of Forms A and G after 40 min stirring
- Type: physicochemical
- measurement_conditions: MEK, 60 °C, organic solvent or mixture, thermodynamic from solid
readout: solubility at 40 min (µg/mL)
Give the value, in units of µg/mL, as a plain number.

Data request, read-out solubility at 40 min, for `CCCN(CCC)C(=O)C1=Cc2ccc(-c3ccc(C(=O)N4CCCC4)cc3)cc2N=C(N)C1`
3700

====

- assay_summary: Slurry screening, solubility determined by HPLC
- Type: physicochemical
- measurement_conditions: organic solvent or mixture, thermodynamic from solid; slurry stirred 5 days; solvent diethylether
readout: solubility at 5 days
Number plus unit, in that order.

Data request, read-out solubility at 5 days, for `CCCN(CCC)C(=O)C1=Cc2ccc(-c3ccc(C(=O)N4CCCC4)cc3)cc2N=C(N)C1`
20 µg/mL

====

- assay_summary: Slurry screening, solubility determined by HPLC
- Assay type: physicochemical
- measurement_conditions: aqueous with cosolvent or surfactant or cyclodextrin, thermodynamic from solid; solvent HOAc/water 1/1; solution
readout: Solubility

Data request, read-out Solubility, for CCCN(CCC)C(=O)C1=Cc2ccc(-c3ccc(C(=O)N4CCCC4)cc3)cc2N=C(N)C1 [starting material]
> 100 mg/mL
